# experimental_details: chemical genetic growth profiling, strain panel (AID 1159580);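 also: tested at 20 µM; growth read once vehicle control cultures reached saturation at 30 °C; 1 = growth at the plate median or of vehicle wells; lower values mean less growth of the strain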
# assay_context: S. cerevisiae deletion strains, growth OD, locus YJR043C, strain POL32
Screen size: about 5,500 compounds; about 2,000 (36%) were called active. Not shown: some 18% with an inconclusive outcome. Rule as the data show it: active = normalized growth mostly below about 0.91 (no sharp cut-off); inconclusive = no clear call, values can overlap the other calls; inactive = mostly above about 0.92. The list shows a part of the results.
Outcomes: active, inactive

[[record]]
compound = "CC(=O)NO"
category = "inactive"

[[record]]
compound = "Cc1onc(-c2c(Cl)cccc2Cl)c1C(=O)N[C@@H]1C(=O)N2[C@@H]1SC(C)(C)[C@@H]2C(=O)O"
category = "inactive"

[[record]]
compound = "COC(=O)CSCCc1nc(-c2ccc([N+](=O)[O-])cc2)cs1"
category = "inactive"

[[record]]
compound = "CC(=O)OCC(=O)[C@@]1(O)CCC2C3CCC4=CC(=O)CC[C@]4(C)C3[C@@H](O)C[C@@]21C (stereo not given in full)"
category = "inactive"

[[record]]
compound = "CO[C@H]1C[C@H](O[C@H]2[C@H](C)[C@@H](OC3O[C@H](C)C[C@H](N(C)C)[C@H]3OC(C)=O)[C@@H](C)C[C@]3(CO3)C(=O)[C@H](C)[C@@H](OC(C)=O)[C@@H](C)[C@@H](C)OC(=O)[C@@H]2C)O[C@@H](C)[C@@H]1OC(C)=O (stereo not given in full)"
category = "inactive"

[[record]]
compound = "CCOC(=O)c1cnc2nc(SC)nn2c1N"
category = "inactive"

[[record]]
compound = "O=c1[nH]cnc2c1ncn2C1O[C@H](CO)[C@@H](O)[C@H]1O (stereo not given in full)"
category = "inactive"

[[record]]
compound = "CC1(C)C=Cc2cc3ccc(=O)oc3cc2O1"
category = "inactive"

[[record]]
compound = "COc1ccc(C(=O)O)c(O)c1OC"
category = "inactive"

[[record]]
compound = "NC(=O)NO"
category = "inactive"

[[record]]
compound = "CC1(C)S[C@@H]2[C@H](NC(=O)Cc3ccccc3)C(=O)N2[C@H]1C(=O)O"
category = "inactive"

[[record]]
compound = "CC[C@H]1OC(=O)[C@H](C)[C@@H](O[C@H]2C[C@@](C)(OC)[C@@H](O)[C@H](C)O2)[C@H](C)[C@@H](O[C@@H]2O[C@H](C)C[C@H](N(C)C)[C@H]2O)[C@](C)(O)C[C@@H](C)[C@@H]2N[C@@H](COCCOC)O[C@H]([C@H]2C)[C@]1(C)O"
category = "inactive"

[[record]]
compound = "NS(=O)(=O)c1ccc(-n2ncc3ccccc3c2=O)cc1"
category = "inactive"

[[record]]
compound = "CC(=O)[O][Hg][c]1ccccc1"
category = "active"

[[record]]
compound = "COc1ccc(C(=O)c2ccccc2)c(O)c1O"
category = "inactive"

[[record]]
compound = "COc1ccc2c(=O)ccoc2c1"
category = "inactive"

[[record]]
compound = "COC(=O)c1ccccc1CSc1nccc(C(F)(F)F)n1"
category = "inactive"

[[record]]
compound = "CC(C)(C)C1=NN(c2ccccc2)C(=O)C1"
category = "inactive"

[[record]]
compound = "CC1=NN(c2ccccc2)C(=O)C1"
category = "inactive"

[[record]]
compound = "Cc1onc(-c2ccccc2)c1C(=O)NC1C(=O)N2[C@@H]1SC(C)(C)[C@@H]2C(=O)O (stereo not given in full)"
category = "inactive"

[[record]]
compound = "COc1cc([N+](=O)[O-])ccc1N1CCCC1"
category = "inactive"

[[record]]
compound = "N#Cc1ccc(Oc2ccc(Cl)cc2)nc1"
category = "inactive"

[[record]]
compound = "O=C(O)c1cc([N+](=O)[O-])ccc1NCCCc1ccccc1"
category = "inactive"

[[record]]
compound = "C#CC1(O)CCC2C3CCC4=CC(=O)CCC4(C)C3CCC21C (stereo not given)"
category = "inactive"

[[record]]
compound = "Cc1c(NC(=O)c2cccnc2)c(=O)n(-c2ccccc2)n1C"
category = "inactive"

[[record]]
compound = "C[C@]12CCC(=O)C=C1CCC1C2C(=O)C[C@@]2(C)C1CC[C@]2(O)C(=O)CO (stereo not given in full)"
category = "inactive"

[[record]]
compound = "CCC1(CC)C(=O)C=CNC1=O"
category = "inactive"

[[record]]
compound = "CC1=NN(c2cccc(S(N)(=O)=O)c2)C(=O)C1"
category = "inactive"

[[record]]
compound = "Cc1onc(-c2ccccc2Cl)c1C(=O)N[C@@H]1C(=O)N2[C@@H]1SC(C)(C)[C@@H]2C(=O)O"
category = "inactive"

[[record]]
compound = "CCOc1ccc(NC(C)=O)cc1"
category = "inactive"

[[record]]
compound = "O=c1oc2c(O)c(O)cc3c(=O)oc4c(O)c(O)cc1c4c23"
category = "active"

[[record]]
compound = "C[C@]12CCC(=O)C=C1CCC1C2[C@@H](O)C[C@@]2(C)C1CC[C@]2(O)C(=O)COC(=O)CCC(=O)O (stereo not given in full)"
category = "inactive"

[[record]]
compound = "COc1c2ccoc2cc2oc(C)cc(=O)c12"
category = "inactive"

[[record]]
compound = "C=CCn1c(COc2c(Br)cc(C)c3c2CCC3)n[nH]c1=S"
category = "inactive"

[[record]]
compound = "NC[C@H]1O[C@H](O[C@H]2C(O[C@@H]3O[C@H](CO)[C@@H](O)[C@H]3O)[C@@H](O)[C@H](N)C[C@@H]2N)[C@H](N)[C@@H](O)[C@@H]1O (stereo not given in full)"
category = "inactive"

[[record]]
compound = "COc1cc(-c2oc3cc(O)ccc3c(=O)c2O)cc(OC)c1OC"
category = "inactive"

[[record]]
compound = "CC(N)C(O)c1ccc(O)c(O)c1 (stereo not given)"
category = "inactive"

[[record]]
compound = "COc1cc(C=Nc2ccc(F)cc2)cc(OC)c1OC"
category = "inactive"

[[record]]
compound = "COc1cc2nc(-c3cccs3)oc(=O)c2cc1OC"
category = "inactive"

[[record]]
compound = "COc1c2occc2c(OC)c2c(=O)cc(C)oc12"
category = "inactive"


----------
# experimental_details: chemical genetic growth profiling, strain panel (AID 1159580);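 also: tested at 20 µM; growth read once vehicle control cultures reached saturation at 30 °C; 1 = growth at the plate median or of vehicle wells; lower values mean less growth of the strain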
# assay_context: S. cerevisiae deletion strains, growth OD, locus YBR231C, strain swc5, active compounds read low
The campaign covered roughly 5,500 compounds. About 2,000 (36%) were called active. About 18% were inconclusive and are not listed. This is one part of the list.
experimental_endpoint: normalized growth

[[record]]
entry_smiles = "CNS(=O)(=O)c1ccc(NC(=O)c2ccccc2C(=O)O)cc1"
observed = "0.991 (inactive)"

[[record]]
entry_smiles = "NCCNCCNCCN"
observed = "0.992 (inactive)"

[[record]]
entry_smiles = "COc1ccc(C2C(=O)c3ccccc3C2=O)cc1"
observed = "1.02 (inactive)"

[[record]]
entry_smiles = "CC1(C)S[C@@H]2[C@H](NC(=O)[C@H](C(=O)O)c3cccs3)C(=O)N2[C@H]1C(=O)O"
observed = "1.02 (inactive)"

[[record]]
entry_smiles = "O=C1c2ccccc2C(=O)C1c1ccccc1"
observed = "1.01 (inactive)"


----------
# experimental_details: chemical genetic growth profiling, strain panel (AID 1159580);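 also: tested at 20 µM; growth read once vehicle control cultures reached saturation at 30 °C; 1 = growth at the plate median or of vehicle wells; lower values mean less growth of the strain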
# assay_context: S. cerevisiae deletion strains, growth OD, locus YOR270C, strain vph1, active compounds read low
Among all 5,500 compounds or so, about 2,000 (36%) were called active. About 18% were inconclusive and are not listed. This is one part of the list.
experimental_endpoint: normalized growth

[[record]]
entry_smiles = "OCc1c[nH]c2ccccc12"
experimental_endpoint = "normalized growth"
observed = 0.974

[[record]]
entry_smiles = "CN(C)CCc1c[nH]c2ccc(C[C@H]3COC(=O)N3)cc12"
experimental_endpoint = "normalized growth"
observed = 0.991

[[record]]
entry_smiles = "CC(=O)OC[C@H]1O[C@@H](Oc2cc(OC(C)=O)c3c(=O)cc(-c4ccc(OC(C)=O)cc4)oc3c2)[C@H](OC(C)=O)[C@@H](OC(C)=O)[C@@H]1OC(C)=O"
experimental_endpoint = "normalized growth"
observed = 0.958

[[record]]
entry_smiles = "COc1cc(-c2coc3cc(O[C@@H]4O[C@H](CO)[C@@H](O)[C@H](O)[C@H]4O)c(OC)c(O)c3c2=O)cc(O)c1OC"
experimental_endpoint = "normalized growth"
observed = 1.02

[[record]]
entry_smiles = "CCOc1ccc(C(=O)c2ccc(O)c(O)c2O)cc1"
experimental_endpoint = "normalized growth"
observed = 0.81

[[record]]
entry_smiles = "CCC1(CC)C(=O)C=CNC1=O"
experimental_endpoint = "normalized growth"
observed = 0.994

[[record]]
entry_smiles = "COc1ccc(-c2oc3ccccc3c(=O)c2O)cc1OC"
experimental_endpoint = "normalized growth"
observed = 0.32

[[record]]
entry_smiles = "O=C(OC[C@H]1O[C@H](OC(=O)c2cc(O)c(O)c(OC(=O)c3cc(O)c(O)c(O)c3)c2)[C@H](OC(=O)c2cc(O)c(O)c(OC(=O)c3cc(O)c(O)c(O)c3)c2)[C@@H](OC(=O)c2cc(O)c(O)c(OC(=O)c3cc(O)c(O)c(O)c3)c2)[C@@H]1OC(=O)c1cc(O)c(O)c(OC(=O)c2cc(O)c(O)c(O)c2)c1)c1cc(O)c(O)c(OC(=O)c2cc(O)c(O)c(O)c2)c1"
experimental_endpoint = "normalized growth"
observed = 0.438

[[record]]
entry_smiles = "CNS(=O)(=O)Cc1ccc2[nH]cc(CCN(C)C)c2c1"
experimental_endpoint = "normalized growth"
observed = 1.1

[[record]]
entry_smiles = "CC(=O)N[C@@H](Cc1c[nH]c2ccccc12)C(=O)O"
experimental_endpoint = "normalized growth"
observed = 1.01

